Target: T1, Human TIGIT protein with HIS tag (human, UniProt Q495A1 22-141)
T1 construct: A soluble analyte is probably only the extracellular part; also called human TIGIT recombinant protein; not shown: HIS tag
T1 sequence: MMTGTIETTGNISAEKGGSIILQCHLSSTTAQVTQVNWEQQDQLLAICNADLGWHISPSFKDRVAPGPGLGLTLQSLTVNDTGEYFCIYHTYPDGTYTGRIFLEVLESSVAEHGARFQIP
Assay: SPR Biacore T200; antibody Fc-captured, TIGIT-His analyte
outcome measure: koff (s⁻¹)
Report as a plain number; the unit s⁻¹ is understood.

139E2C2D2 (antibody, V domains shown, Mouse monoclonal antibody; also called mouse anti-human TIGIT monoclonal antibody 139E2C2D2) VH: EVQLVESGGDLVKPGGSLKLSCAASGFTFSSYGMSWVRQTPDKRLEWVAIISSGGNYTYYPDSVKGRFTISRDNAKNTLYLQMSSLKSEDTAMYYCARQIHYFFAMDYWGQGTSVTVSS VL: DIQMTQSPASLSVSVGETVTITCRASENIYSNLAWYQQKQGKSPQLLVYAATNLADGAPSRFSGSRSGTQYSLKINSLQSEDFGSYYCQHFWGTAYTFGGGTKLEIK : 0.0062

Ask: Can you share its koff? I mean this binder: 64G1E9B4 (antibody, V domains shown, Mouse monoclonal antibody; also called mouse anti-human TIGIT monoclonal antibody 64G1E9B4) VH: EVQLQQSGPELVKPGASVKISCKTSGYTFTEHVIHWVKQSHGKSLEWIGGFNPNHDGTIYNQIFRGKATLTVDKSSSTAYMELRSLTSEDSAVYFCTRAAKLLFAMDYWGQGTSVTVSS VL: DIVMTQSHKFMSTSIGDRVSITCKASQHVSNAVVWYQQKPGQSPKLLIYSPSYRFTGVPDRFTGSGSGTDFTFTISSVQAEDLAVYYCQQHYSTPWTFGGGTKLEIK
Reply: 0.00015
